Source listed as patent US12545652B2.

# ASSAY_REMARKS: Solubility at 25° C. by HPLC of filtrates after equilibration of Form A in solvents
# Type: physicochemical
# EXPERIMENTAL_SETUP: IPA, 25 °C, organic solvent or mixture, thermodynamic from solid
PROPERTY_LABEL: solubility (mg/mL)
Give the number; mg/mL is assumed, so skip it.

Kindly note the recorded solubility for NC(=O)c1nc(-c2c(Cl)cccc2Cl)oc1Nc1ccc(C(=O)N2CCS(=O)(=O)CC2)cc1 [Form A] , which is 2.45

* * *

# ASSAY_REMARKS: Hepatocyte stability assay, dog
# Type: in vitro ADME
# EXPERIMENTAL_SETUP: male, Beagle, pooled hepatocytes
PROPERTY_LABEL: hepatocyte CLint

Kindly note the recorded hepatocyte CLint for NC(=O)c1nc(-c2c(Cl)cccc2Cl)oc1Nc1ccc(C(=O)N2CCS(=O)(=O)CC2)cc1 [Compound (1)] , which is < 3 µL/min/1e6 cells

* * *

Measured half-life accompanies every entry in the list below.
# ASSAY_REMARKS: Hepatocyte stability assay, rat
# Type: in vitro ADME
# EXPERIMENTAL_SETUP: male, Sprague-Dawley, pooled hepatocytes
Give the number; min is assumed, so skip it.

MOLECULE: NC(=O)c1nc(-c2c(Cl)cccc2Cl)oc1Nc1ccc(C(=O)N2CCOCC2)cc1 [Comparative Compound B, reference compound]
UNIT_OF_MEASURE: min
RESULT_NUMBER: 14.8

Alright, here's another molecule for you.
Kindly note the recorded half-life for NC(=O)c1nc(-c2c(Cl)cccc2Cl)oc1Nc1ccc(C(=O)N2CCS(=O)(=O)CC2)cc1 [Compound (1)] , which is 30.6

* * *

# ASSAY_REMARKS: Solubility at 25° C. by HPLC of filtrates after equilibration of Form A in solvents
# Format: physicochemical
# EXPERIMENTAL_SETUP: toluene, 25 °C, organic solvent or mixture, thermodynamic from solid
PROPERTY_LABEL: solubility (µg/mL)
Give the number; µg/mL is assumed, so skip it.

Kindly note the recorded solubility for NC(=O)c1nc(-c2c(Cl)cccc2Cl)oc1Nc1ccc(C(=O)N2CCS(=O)(=O)CC2)cc1 [Form A] , which is 1120

* * *

# ASSAY_REMARKS: Solubility at 25° C. by HPLC of filtrates after equilibration of Form A in solvents
# Format: physicochemical
# EXPERIMENTAL_SETUP: MEK, 25 °C, organic solvent or mixture, thermodynamic from solid
PROPERTY_LABEL: solubility (µg/mL)
Give the number; µg/mL is assumed, so skip it.

Kindly note the recorded solubility for NC(=O)c1nc(-c2c(Cl)cccc2Cl)oc1Nc1ccc(C(=O)N2CCS(=O)(=O)CC2)cc1 [Form A] , which is 6080

* * *

# ASSAY_REMARKS: Solubility at 25° C. by HPLC of filtrates after equilibration of Form A in solvents
# Type: physicochemical
# EXPERIMENTAL_SETUP: chlorobenzene, 25 °C, organic solvent or mixture, thermodynamic from solid
PROPERTY_LABEL: solubility

Kindly note the recorded solubility for NC(=O)c1nc(-c2c(Cl)cccc2Cl)oc1Nc1ccc(C(=O)N2CCS(=O)(=O)CC2)cc1 [Form A] , which is 1870 µg/mL

* * *

# ASSAY_REMARKS: Solubility at 25° C. by HPLC of filtrates after equilibration of Form A in solvents
# Assay type: physicochemical
# EXPERIMENTAL_SETUP: EtOH, 25 °C, organic solvent or mixture, thermodynamic from solid
PROPERTY_LABEL: solubility (mg/mL)
Give the number; mg/mL is assumed, so skip it.

Kindly note the recorded solubility for NC(=O)c1nc(-c2c(Cl)cccc2Cl)oc1Nc1ccc(C(=O)N2CCS(=O)(=O)CC2)cc1 [Form A] , which is 5.2

* * *

# ASSAY_REMARKS: Solubility at 25° C. by HPLC of filtrates after equilibration of Form A in solvents
# Format: physicochemical
# EXPERIMENTAL_SETUP: anisole, 25 °C, organic solvent or mixture, thermodynamic from solid
PROPERTY_LABEL: solubility

Kindly note the recorded solubility for NC(=O)c1nc(-c2c(Cl)cccc2Cl)oc1Nc1ccc(C(=O)N2CCS(=O)(=O)CC2)cc1 , which is > 10000 µg/mL

* * *

# ASSAY_REMARKS: Hepatocyte stability assay, human
# Assay type: in vitro ADME
# EXPERIMENTAL_SETUP: both sexes, human, pooled hepatocytes, Human hepatocytes; read-out: T1/2
PROPERTY_LABEL: half-life (h)
Give the number; h is assumed, so skip it.

Kindly note the recorded half-life for NC(=O)c1nc(-c2c(Cl)cccc2Cl)oc1Nc1ccc(C(=O)N2CCOCC2)cc1 [Comparative Compound B, reference compound] , which is 2.07

* * *

# ASSAY_REMARKS: Solubility at 25° C. by HPLC of filtrates after equilibration of Form A in solvents
# Type: physicochemical
# EXPERIMENTAL_SETUP: CPME, 25 °C, organic solvent or mixture, thermodynamic from solid
PROPERTY_LABEL: solubility (µg/mL)
Give the number; µg/mL is assumed, so skip it.

Kindly note the recorded solubility for NC(=O)c1nc(-c2c(Cl)cccc2Cl)oc1Nc1ccc(C(=O)N2CCS(=O)(=O)CC2)cc1 [Form A] , which is 1870

* * *

# ASSAY_REMARKS: Hepatocyte stability assay, dog
# Type: in vitro ADME
# EXPERIMENTAL_SETUP: male, Beagle, pooled hepatocytes
# Protocol: Test and control compounds were incubated with hepatocytes at 37° C. Aliquots were removed at 6 timepoints over a one hour period. Samples were centrifuged and the supernatant fractions analysed for parent compound by mass spectrometry (LC-MS/MS). The amount of compound remaining (expressed as %) was determined from the MS response in each sample relative to that in the T=0 samples, and used to determine the half-life and intrinsic clearance of the compound.
PROPERTY_LABEL: half-life (min)
Give the number; min is assumed, so skip it.

Kindly note the recorded half-life for NC(=O)c1nc(-c2c(Cl)cccc2Cl)oc1Nc1ccc(C(=O)N2CCOCC2)cc1 [Comparative Compound B, reference compound] , which is 53.5

* * *

# ASSAY_REMARKS: Solubility at 25° C. by HPLC of filtrates after equilibration of Form A in solvents
# Assay type: physicochemical
# EXPERIMENTAL_SETUP: MeCN, 25 °C, organic solvent or mixture, thermodynamic from solid
PROPERTY_LABEL: solubility (µg/mL)
Give the number; µg/mL is assumed, so skip it.

Kindly note the recorded solubility for NC(=O)c1nc(-c2c(Cl)cccc2Cl)oc1Nc1ccc(C(=O)N2CCS(=O)(=O)CC2)cc1 [Form A] , which is 9160

* * *

# ASSAY_REMARKS: Hepatocyte stability assay, human
# Format: in vitro ADME
# EXPERIMENTAL_SETUP: both sexes, pooled hepatocytes; Human hepatocytes
PROPERTY_LABEL: hepatocyte CLint

Kindly note the recorded hepatocyte CLint for NC(=O)c1nc(-c2c(Cl)cccc2Cl)oc1Nc1ccc(C(=O)N2CCS(=O)(=O)CC2)cc1 [Compound (1)] , which is < 3 µL/min/1e6 cells
